Assay: Biodistribution of radiometal-DOTA-BBN conjugates in CF1 normal mice
Conditions: 1 hour post-injection
Please provide measured Avg % ID, Spleen for the entries that follow.
Write your answer as a measured quantity: the number, then the unit.

Previously resolved entries follow.
compound	result
CSCC[C@H](NC(=O)[C@H](CC(C)C)NC(=O)[C@H](Cc1cnc[nH]1)NC(=O)CNC(=O)[C@@H](NC(=O)[C@H](C)NC(=O)[C@H](Cc1c[nH]c2ccccc12)NC(=O)[C@H](CCC(N)=O)NC(=O)CCNC(=O)CN1CCN(CC(=O)O)CCN(CC(=O)O)CCN(CC(=O)O)CC1)C(C)C)C(N)=O [177Lu-DOTA-β-Ala-BBN[7-14]NH2] [metal not drawn]	0.05 ± 0.04 % ID
CSCC[C@H](NC(=O)[C@H](CC(C)C)NC(=O)[C@H](Cc1c[nH]cn1)NC(=O)CNC(=O)[C@@H](NC(=O)[C@H](C)NC(=O)[C@H](Cc1c[nH]c2ccccc12)NC(=O)[C@H](CCC(N)=O)NC(=O)CCCCCCCCCCNC(=O)CN1CCN(CC(=O)O)CCN(CC(=O)O)CCN(CC(=O)O)CC1)C(C)C)C(N)=O [177Lu-DOTA-11-Aun-BBN[7-14]NH2] [metal not drawn]	0.24 ± 0.24 % ID

Moving on to another compound below.
Value of measured Avg % ID, Spleen for the entry CSCC[C@H](NC(=O)[C@H](CC(C)C)NC(=O)[C@H](Cc1cnc[nH]1)NC(=O)CNC(=O)[C@@H](NC(=O)[C@H](C)NC(=O)[C@H](Cc1c[nH]c2ccccc12)NC(=O)[C@H](CCC(N)=O)NC(=O)CCNC(=O)CN1CCN(CC(=O)O)CCN(CC(=O)O)CCN(CC(=O)O)CC1)C(C)C)C(N)=O [149Pm-DOTA-β-Ala-BBN[7-14]NH2] : 0.02 ± 0.04 % ID

====

Assay: Biodistribution of radiometal-DOTA-BBN conjugates in CF1 normal mice
Conditions: 1 hour post-injection
assay_readout: Avg % ID/gm, L. Intestine (% ID/gm)
Give bare numbers, in % ID/gm.

compound	quantitative_readout
CSCC[C@H](NC(=O)[C@H](CC(C)C)NC(=O)[C@H](Cc1cnc[nH]1)NC(=O)CNC(=O)[C@@H](NC(=O)[C@H](C)NC(=O)[C@H](Cc1c[nH]c2ccccc12)NC(=O)[C@H](CCC(N)=O)NC(=O)CN1CCN(CC(=O)O)CCN(CC(=O)O)CCN(CC(=O)O)CC1)C(C)C)C(N)=O [149Pm-DOTA-0-BBN[7-14]NH2]	0.01
CSCC[C@H](NC(=O)[C@H](CC(C)C)NC(=O)[C@H](Cc1cnc[nH]1)NC(=O)CNC(=O)[C@@H](NC(=O)[C@H](C)NC(=O)[C@H](Cc1c[nH]c2ccccc12)NC(=O)[C@H](CCC(N)=O)NC(=O)CCNC(=O)CN1CCN(CC(=O)O)CCN(CC(=O)O)CCN(CC(=O)O)CC1)C(C)C)C(N)=O [111In-DOTA-β-Ala-BBN[7-14]NH2] [metal not drawn]	1.10
CSCC[C@H](NC(=O)[C@H](CC(C)C)NC(=O)[C@H](Cc1cnc[nH]1)NC(=O)CNC(=O)[C@@H](NC(=O)[C@H](C)NC(=O)[C@H](Cc1c[nH]c2ccccc12)NC(=O)[C@H](CCC(N)=O)NC(=O)CCNC(=O)CN1CCN(CC(=O)O)CCN(CC(=O)O)CCN(CC(=O)O)CC1)C(C)C)C(N)=O [177Lu-DOTA-β-Ala-BBN[7-14]NH2] [metal not drawn]	0.45
CSCC[C@H](NC(=O)[C@H](CC(C)C)NC(=O)[C@H](Cc1cnc[nH]1)NC(=O)CNC(=O)[C@@H](NC(=O)[C@H](C)NC(=O)[C@H](Cc1c[nH]c2ccccc12)NC(=O)[C@H](CCC(N)=O)NC(=O)CN1CCN(CC(=O)O)CCN(CC(=O)O)CCN(CC(=O)O)CC1)C(C)C)C(N)=O [177Lu-DOTA-0-BBN[7-14]NH2] [metal not drawn]	0.07

Please examine the following record next.
Note to self: Avg % ID/gm, L. Intestine recorded for CSCC[C@H](NC(=O)[C@H](CC(C)C)NC(=O)[C@H](Cc1cnc[nH]1)NC(=O)CNC(=O)[C@@H](NC(=O)[C@H](C)NC(=O)[C@H](Cc1c[nH]c2ccccc12)NC(=O)[C@H](CCC(N)=O)NC(=O)CCCCCCCNC(=O)CN1CCN(CC(=O)O)CCN(CC(=O)O)CCN(CC(=O)O)CC1)C(C)C)C(N)=O [177Lu-DOTA-8-Aoc-BBN[7-14]NH2] [metal not drawn] was 6.17
